# Test system: SDMA in human colon cancer cell line HCT116
# protocol-description: Cell symmetric dimethylarginine (SDMA) test, In-cell Western, HCT116 (MTAP wild-type)
# Format: cell-based
# condition-context: 96 h, IC50 score class, read-out: Cell 96 h SDMA Inhibition (HCT116-MTAP+/+) (score)

# structure-string, target-or-test-system, IC50
records = [
    ("Cc1ncccc1-n1c(=O)c2nn(C)cc2c2ccc(Cl)cc21", "SDMA in human colon cancer cell line HCT116", "< 200 nM"),
]

====

# target-or-test-system: MAT2A recombinant protein (Homo sapiens, UniProt P31153)
# Sequence (P31153 whole entry): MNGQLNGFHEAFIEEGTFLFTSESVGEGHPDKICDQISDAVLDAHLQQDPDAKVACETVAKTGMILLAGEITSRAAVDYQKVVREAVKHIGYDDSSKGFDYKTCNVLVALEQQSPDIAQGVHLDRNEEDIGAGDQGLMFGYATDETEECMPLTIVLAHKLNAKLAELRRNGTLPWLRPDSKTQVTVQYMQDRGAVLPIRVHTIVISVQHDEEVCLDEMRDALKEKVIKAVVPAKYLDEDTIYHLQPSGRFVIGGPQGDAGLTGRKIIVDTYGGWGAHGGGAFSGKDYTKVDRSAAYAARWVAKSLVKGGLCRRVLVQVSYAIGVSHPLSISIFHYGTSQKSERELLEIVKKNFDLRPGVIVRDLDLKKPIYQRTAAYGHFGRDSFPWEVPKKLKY
# protocol-description: MAT2A inhibitory activity (malachite green colorimetric enzyme assay)
# Type: biochemical
# condition-context: IC50 score class; read-out: MAT2A Inhibition (score)
pIC50: −log10 of the molar value.
Entries and their measured pIC50 follow.

# structure-string, pIC50
rows = [
    ("CCn1nc2c(=O)n(-c3cccnc3)c3cc(Cl)ccc3c2c1C(F)F", "> 7.00"),
    ("COc1ncccc1-n1c(=O)c2nn(C)cc2c2ccc(C(F)(F)F)nc21", "> 7.00"),
    ("Cn1cc2c(n1)c(=O)n(-c1ccc(F)c(O)c1)c1nc(C(F)(F)F)ccc21", "> 7.00"),
    ("Cn1cc2c(n1)c(=O)n(-c1ccccc1Cl)c1nc(C(F)(F)F)ccc21", "> 7.00"),
    ("Cn1cc2c(n1)c(=O)n(-c1cccnc1)c1cc(C(F)(F)F)ccc21", "> 7.00"),
    ("Cn1cc2c(n1)c(=O)n(-c1cccnc1)c1cc(Cl)cc(F)c21", "> 7.00"),
    ("COc1ccc(-n2c(=O)c3nn(C)cc3c3ccc(C(F)(F)F)nc32)cc1", "6.00 to 7.00"),
    ("CCn1cc2c(n1)c(=O)n(-c1cccnc1)c1cc(OC(F)(F)F)ccc21", "6.00 to 7.00"),
]

====

# System: HCT116-MTAP wild-type (+/+)-cell strain
# protocol-description: Tumor cell proliferation inhibition assay (CellTiter-Glo), HCT116-MTAP wild-type (+/+)
# Assay type: cell-based
# condition-context: Homo sapiens, 120 h, HCT116-MTAP wild-type (+/+) cells, 5-day treatment, IC50 value, read-out: Tumor cell 5-day relative growth inhibition (HCT116-MTAP+/+)
# Description: After the HCT116-MTAP-knockout (−/−) cell strain, the HCT116-MTAP wild-type(+/+)-cell strain, the DOHH-2 cell strain, or the Hut-78 cell strain was treated with the test compound for 5 days, the ATP level was measured using a CellTiter-Glo kit of Promega to evaluate the inhibition of the test compound against the growth of the tumor cell strain. […]
quantity-kind: IC50 (nM)

# compound, readout-units, relation-sign, quantitative-result
rows = [
    ("Cc1ncccc1-n1c(=O)c2nn(C)c(C)c2c2ccc(C(F)(F)F)nc21", "nM", "=", 488),
    ("Cc1ncccc1-n1c(=O)c2nn(C)cc2c2ccc(C(F)(F)F)nc21 (single isomer, unassigned)", "nM", "=", 191),
    ("Cn1cnc2c(=O)n(-c3cccnc3C(F)(F)F)c3cc(Cl)c(F)cc3c21", "nM", ">", 10000),
    ("O=c1c2nn(C(F)F)cc2c2ccc(C(F)(F)F)nc2n1-c1cccc2[nH]ncc12", "nM", "=", 1100),
    ("Cn1cc2c(n1)c(=O)n(-c1cccc3ccccc13)c1cc(Cl)c(F)cc21", "nM", ">", 10000),
    ("O=c1c2nn(C(F)F)cc2c2ccc(Cl)cc2n1-c1cccnc1", "nM", "=", 3570),
    ("Cc1c2c(nn1C)c(=O)n(-c1cccnc1)c1nc(C(F)(F)F)ccc21", "nM", "=", 745),
    ("COc1ccc(Cn2cc3c(n2)c(=O)n(-c2cccnc2)c2cc(Cl)ccc32)cc1", "nM", "=", 279),
    ("Cc1ncccc1-n1c(=O)c2nn(C3CC3)cc2c2ccc(C(F)(F)F)nc21", "nM", "=", 1150),
    ("Cc1ncccc1-n1c(=O)c2nn(C)cc2c2ccc(Cl)cc21", "nM", "=", 135),
    ("CNC(=O)CC1N=c2c(c3ccc(Cl)cc3n(-c3cccnc3)c2=O)=N1 (stereo not drawn)", "nM", ">", 2000),
    ("Cn1cc2c(n1)c(=O)n(-c1ccc(OC(F)F)cc1)c1nc(C(F)(F)F)ccc21", "nM", ">", 10000),
    ("Cc1ncccc1-n1c(=O)c2[nH]ncc2c2ccc(C3CC3)nc21", "nM", "=", 621),
    ("Cn1ccc(Cn2cc3c(n2)c(=O)n(-c2cccnc2)c2cc(Cl)ccc32)n1", "nM", "=", 1730),
    ("Cn1cc2c(n1)c(=O)n(-c1cccnc1C1CC1)c1nc(C(F)(F)F)ccc21 (single isomer, unassigned)", "nM", "=", 1740),
    ("Cc1ccc(-n2c(=O)c3nn(C)cc3c3ccc(C(F)(F)F)nc32)cn1", "nM", ">", 2000),
    ("Cc1c2c(nn1C(F)F)c(=O)n(-c1cccnc1)c1nc(C(F)(F)F)ccc21", "nM", "=", 1230),
    ("Cn1cc2c(n1)c(=O)n(-c1cccnc1)c1cc(Cl)ccc21", "nM", "=", 1650),
    ("[2H]C([2H])([2H])n1cc2c(n1)c(=O)n(-c1cccc3[nH]ncc13)c1nc(C(F)(F)F)ccc21", "nM", "=", 577),
    ("O=c1c2nn(C3CC3)cc2c2ccc(C(F)(F)F)nc2n1-c1cccc2[nH]ncc12", "nM", "=", 939),
    ("O=c1c2[nH]ncc2c2ccc(Cl)cc2n1-c1cccnc1", "nM", "=", 928),
    ("Cn1cnc2c(=O)n(-c3cccc4[nH]ncc34)c3cc(Cl)c(C#N)cc3c21", "nM", ">", 10000),
    ("O=c1c2nn(C(F)F)cc2c2ccc(C(F)(F)F)nc2n1-c1cccnc1", "nM", "=", 12800),
    ("O=c1c2n[nH]cc2c2cc(F)c(Cl)cc2n1-c1cccc2[nH]ncc12", "nM", "=", 173),
    ("Cn1cc2c(n1)c(=O)n(-c1cccc3[nH]ncc13)c1cc(Cl)cnc21", "nM", "=", 7600),
    ("O=c1c2nn(CC3CC3)cc2c2ccc(C(F)(F)F)nc2n1-c1cccnc1", "nM", "=", 53800),
    ("Cc1ncccc1-n1c(=O)c2[nH]ncc2c2ccc(OC(F)(F)F)cc21", "nM", ">", 2000),
    ("O=c1c2n[nH]cc2c2ccc(C(F)(F)F)nc2n1-c1cccc2[nH]ncc12", "nM", "=", 477),
    ("O=c1c2nn(C(F)F)cc2c2cc(F)c(C3CC3)nc2n1-c1cccnc1C1CC1", "nM", ">", 10000),
    ("Cc1ncccc1-n1c(=O)c2nn(C3CC3)cc2c2ccc(Cl)cc21", "nM", "=", 1030),
    ("Cn1cc2c(n1)c(=O)n(-c1cccnc1C(F)(F)F)c1nc(C(F)(F)F)ccc21", "nM", "=", 23300),
    ("Cc1c2c(nn1C(F)F)c(=O)n(-c1cccc3[nH]ncc13)c1nc(C(F)(F)F)ccc21", "nM", "=", 1630),
    ("Cn1cc2c(n1)c(=O)n(-c1cccnc1C(F)(F)F)c1cc(Cl)c(F)cc21 (single isomer, unassigned) [Compound B389]", "nM", ">", 10000),
]

Data origin, for the record: patent US20240391923A1
